Each entry below lists one item and its recorded pKD (Biacore) value.
- Assayed target: Human recombinant FAP (Homo sapiens (Human))
- Assay remarks: Surface plasmon resonance assay (Biacore T200, SCK)
- Format: binding
- Experimental parameters: SPR
- Sequence (Q12884 whole entry): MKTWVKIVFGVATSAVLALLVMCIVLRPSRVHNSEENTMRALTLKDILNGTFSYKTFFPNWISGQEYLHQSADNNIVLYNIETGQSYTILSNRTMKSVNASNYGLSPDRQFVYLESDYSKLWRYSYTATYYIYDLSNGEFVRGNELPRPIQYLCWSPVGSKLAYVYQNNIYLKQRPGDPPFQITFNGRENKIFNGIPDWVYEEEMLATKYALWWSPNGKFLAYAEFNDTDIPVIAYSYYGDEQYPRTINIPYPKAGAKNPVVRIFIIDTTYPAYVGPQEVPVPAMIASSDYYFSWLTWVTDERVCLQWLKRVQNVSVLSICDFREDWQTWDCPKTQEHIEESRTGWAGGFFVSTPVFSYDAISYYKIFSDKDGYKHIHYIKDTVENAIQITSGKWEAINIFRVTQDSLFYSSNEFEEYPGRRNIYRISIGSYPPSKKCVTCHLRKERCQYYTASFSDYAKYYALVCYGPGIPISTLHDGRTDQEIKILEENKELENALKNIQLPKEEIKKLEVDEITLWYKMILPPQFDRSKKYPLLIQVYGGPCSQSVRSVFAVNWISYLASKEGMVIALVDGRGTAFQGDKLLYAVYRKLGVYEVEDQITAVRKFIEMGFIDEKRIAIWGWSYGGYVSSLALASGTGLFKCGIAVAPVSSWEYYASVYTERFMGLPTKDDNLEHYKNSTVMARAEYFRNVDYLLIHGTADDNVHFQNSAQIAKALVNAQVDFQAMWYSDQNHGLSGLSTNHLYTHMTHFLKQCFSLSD

{"columns": ["Compound", "Recorded measurement"],
 "data": [
  ["O=C(O)CN1CCN(CC(=O)O)CCN(CC(=O)NCCCNC(=O)c2ccc(-c3ccc4nccc(C(=O)NCC(=O)N5CCC[C@H]5B(O)O)c4c3)cc2)CCN(CC(=O)O)CC1", ">10.5"],
  ["N#C[C@@H]1CC(F)(F)CN1C(=O)CNC(=O)c1ccnc2ccc(-c3ccc(S(=O)(=O)CCCNC(=O)CN4CCN(CC(=O)O)CCN(CC(=O)O)CCN(CC(=O)O)CC4)cc3)cc12", ">10.5"],
  ["CS(=O)(=O)c1cccc(-c2ccc3nccc(C(=O)NCC(=O)N4CCC[C@H]4C#N)c3c2)c1", 9.4]
]}

Value (pKD (Biacore), Human recombinant FAP (Homo sapiens (Human))) for record `CS(=O)(=O)c1ccc(-c2ccc3c(C(=O)NCC(=O)N4CCC[C@H]4C#N)ccnc3c2)cc1` = 9.2

Value (pKD (Biacore), Human recombinant FAP (Homo sapiens (Human))) for record N#C[C@@H]1CC(F)(F)CN1C(=O)CNC(=O)c1ccnc2c1=CC(OCCCN1CCN(C(=O)CN3CCN4CCN5CCN(CC3)CC(=O)[O][In]([O]C(=O)C5)[O]C(=O)C4)CC1)CC=2 (some centres unmarked) = 10.5

###

- Assayed target: Human recombinant FAP (Homo sapiens (Human))
- Assay remarks: FAP protease activity assay (human), FRET-based
- Assay type: biochemical
- Experimental parameters: human FAP protease activity, FRET
- Experimental: In order to determine the inhibitory activity a FRET-based FAP protease activity assay was established. Four parameter logistic (4PL) curve fitting and pIC50 calculations were performed using ActivityBase software (IDBS).
- Sequence (Q12884 26-760): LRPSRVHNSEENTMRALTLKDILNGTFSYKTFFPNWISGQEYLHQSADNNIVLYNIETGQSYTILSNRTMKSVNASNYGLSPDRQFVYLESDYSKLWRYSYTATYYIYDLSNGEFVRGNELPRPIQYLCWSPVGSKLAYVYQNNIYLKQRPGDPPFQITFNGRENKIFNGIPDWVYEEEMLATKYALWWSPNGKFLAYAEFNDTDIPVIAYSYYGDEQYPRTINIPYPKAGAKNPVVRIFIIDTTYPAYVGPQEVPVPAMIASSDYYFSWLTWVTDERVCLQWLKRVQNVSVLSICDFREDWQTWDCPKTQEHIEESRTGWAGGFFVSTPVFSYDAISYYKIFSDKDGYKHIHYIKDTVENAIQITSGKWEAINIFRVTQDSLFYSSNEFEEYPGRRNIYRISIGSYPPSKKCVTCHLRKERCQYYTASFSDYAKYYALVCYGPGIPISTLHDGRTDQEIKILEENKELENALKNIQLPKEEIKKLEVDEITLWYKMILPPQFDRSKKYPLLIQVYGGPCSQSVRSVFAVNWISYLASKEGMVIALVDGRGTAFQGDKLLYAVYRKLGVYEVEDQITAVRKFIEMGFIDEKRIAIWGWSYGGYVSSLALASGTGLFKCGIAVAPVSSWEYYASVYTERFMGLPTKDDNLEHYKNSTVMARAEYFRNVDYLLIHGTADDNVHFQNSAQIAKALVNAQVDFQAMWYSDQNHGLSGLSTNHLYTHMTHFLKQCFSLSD
Each entry below lists one item and its recorded pIC50 (Activity) value.
Lab note: record just the number, no unit beside it.

In the examples that follow, each entry is paired with its recorded pIC50 (Activity).
{"columns": ["Compound", "Measurement label", "Recorded measurement"],
 "data": [
  ["N#C[C@@H]1CCCN1C(=O)CNC(=O)c1ccnc2ccc(-c3ccc(C(=O)NCCCNC(O)CN4CCN5CCN6CCN(CC4)CC(=O)[O][Eu]([O]C(=O)C6)[O]C(=O)C5)cc3)cc12 (stereo partly drawn)", "pIC50 (Activity)", 9.3],
  ["Cc1cc(S(C)(=O)=O)ccc1-c1ccc2nccc(C(=O)NCC(=O)N3CC(F)(F)C[C@H]3C#N)c2c1", "pIC50 (Activity)", 9.3],
  ["O=C(NCC(=O)N1CCC[C@H]1B(O)O)c1ccnc2ccccc12", "pIC50 (Activity)", 8.9],
  ["N#C[C@@H]1CC(F)(F)CN1C(=O)CNC(=O)c1ccnc2ccc(-c3ccc(C(=O)NCCCNC(O)CN4CCN5CCN6CCN(CC4)CC(=O)[O][Eu]([O]C(=O)C6)[O]C(=O)C5)cc3)cc12 (stereo partly drawn)", "pIC50 (Activity)", 9.4],
  ["Cc1cc(S(C)(=O)=O)ccc1-c1ccc2nccc(C(=O)NCC(=O)N3CCC[C@H]3C#N)c2c1", "pIC50 (Activity)", 9.2],
  ["Cc1cccc2c(C(=O)NCC(=O)N3CC(F)(F)C[C@H]3C#N)ccnc12", "pIC50 (Activity)", 7.9]
]}

Summary for this compound, `Cc1cc2nccc(C(=O)NCC(=O)N3CC(F)(F)C[C@H]3C#N)c2cc1-c1ccc(S(C)(=O)=O)cc1` : pIC50 (Activity) is 9.3

Summary for this compound, `COc1cccc2c(C(=O)NCC(=O)N3CC(F)(F)C[C@H]3C#N)ccnc12` : pIC50 (Activity) is 8.2

Summary for this compound, `CS(=O)(=O)c1ccc(-c2ccc3nccc(C(=O)NCC(=O)N4C[C@@H](F)C[C@H]4C#N)c3c2)cc1` : pIC50 (Activity) is 9.2

Summary for this compound, `CS(=O)(=O)c1ccc(-c2ccc3nccc(C(=O)NCC(=O)N4C[C@H](F)C[C@H]4C#N)c3c2)cc1` : pIC50 (Activity) is 8.5

Summary for this compound, `CS(=O)(=O)c1cc(F)c(-c2ccc3nccc(C(=O)NCC(=O)N4CCC[C@H]4C#N)c3c2)c(F)c1` : pIC50 (Activity) is 9.3

Summary for this compound, `CCOc1cccc2c(C(=O)NCC(=O)N3CC(F)(F)C[C@H]3C#N)ccnc12` : pIC50 (Activity) is 8.5

###

- Assayed target: Human recombinant FAP (Homo sapiens (Human), UniProt Q12884)
- Assay remarks: Surface plasmon resonance assay (Biacore T200, SCK)
- Type: binding
- Experimental parameters: SPR, read-out: pKD (Biacore) (converted)
Each entry below lists one item and its recorded Kd value.

In the examples that follow, each entry is paired with its recorded Kd.
{"columns": ["Compound", "Kd"],
 "data": [
  ["O=C(O)CN1CCN(CC(=O)O)CCN(CC(=O)NCCCS(=O)(=O)c2ccc(-c3ccc4nccc(C(=O)NCC(=O)N5CCC[C@H]5C(=O)c5nc6ccccc6o5)c4c3)cc2)CCN(CC(=O)O)CC1 [Compound 3BP-3581]", "< 0.0316 nM"],
  ["N#C[C@@H]1CCCN1C(=O)CNC(=O)c1ccnc2ccc(-c3ccc(C(=O)NCCCN(CC(=O)O)C(=O)CN4CCN(CC(=O)O)CCN(CC(=O)O)CCN(CC(=O)O)CC4)cc3)cc12 [Compound 3BP-3954]", "< 0.0316 nM"],
  ["O=C(NCC(=O)N1CCC[C@H]1C(=O)CO)c1ccnc2ccccc12 [Compound 3BP-4197]", "1 nM"]
]}

Value (Kd, Human recombinant FAP (Homo sapiens (Human), UniProt Q12884)) for record N#C[C@@H]1CC(F)(F)CN1C(=O)CNC(=O)c1ccnc2ccc(-c3ccc(C(=O)NCCN4CCN(C(=O)CN5CCN(CC(=O)O)CCN(CC(=O)O)CCN(CC(=O)O)CC5)CC4)nc3)cc12 [Compound 3BP-4076] = < 0.0316 nM

###

- Assayed target: FAP-expressing human WI-38 fibroblasts (Homo sapiens (Human))
- Sequence (Q12884 whole entry): as the sequence (Q12884 whole entry) above
- Assay remarks: FACS binding assay (competitive, Cy5-labeled 3BP-2935)
- Experimental parameters: FAP-expressing WI-38 fibroblasts
Each entry below lists one item and its recorded pIC50 (FACS) value.
Lab note: record just the number, no unit beside it.

In the examples that follow, each entry is paired with its recorded pIC50 (FACS).
{"columns": ["Compound", "pIC50 (FACS)"],
 "data": [
  ["CS(=O)(=O)c1cccc(-c2ccc3c(C(=O)NCC(=O)N4CC(F)(F)C[C@H]4C#N)ccnc3c2)c1", 8.7],
  ["O=C(NCC(=O)N1CCC[C@H]1C(=O)c1ncco1)c1ccnc2ccccc12", 7.9],
  ["CC(C)(C)OC(=O)N1CC[N+]([O-])(CCCOc2ccc3nccc(C(=O)NCC(=O)N4CC(F)(F)C[C@H]4C#N)c3c2)CC1", 8.6],
  ["CS(=O)(=O)c1cccc(-c2ccc3nccc(C(=O)NCC(=O)N4CC(F)(F)C[C@H]4C#N)c3c2)c1", 8.8],
  ["CS(=O)(=O)c1ccc(-c2ccc3nccc(C(=O)NCC(=O)N4CC(F)(F)C[C@H]4C#N)c3c2)cc1", 9]
]}

Value (pIC50 (FACS), FAP-expressing human WI-38 fibroblasts (Homo sapiens (Human))) for record `CS(=O)(=O)c1cccc(-c2ccc3nccc(C(=O)NCC(=O)N4CCC[C@H]4C#N)c3c2)c1` = 8.4

Value (pIC50 (FACS), FAP-expressing human WI-38 fibroblasts (Homo sapiens (Human))) for record N#C[C@@H]1CC(F)(F)CN1C(=O)CNC(=O)c1ccnc2c1=CC(OCCCN1CCN(C(=O)CN3CCN4CCN5CCN(CC3)CC(=O)[O][In]([O]C(=O)C5)[O]C(=O)C4)CC1)CC=2 (some centres unmarked) = 8.7
